The entries below come with measured inhibition values attached.
# system: UniProtKB P06935
# assayInfo: Inhibition of West Nile virus NS2B-NS3 protease at 50 uM using 2-Abz-Nle-Lys-Arg-Arg-Ser-(3-NO2)-Tyr-NH2 FRET substrate preincubated for 15 mins followed by substrate addition measured after 15 mins by fluorimetric analysis relative to control
readout: inhibition (%)

{"columns": ["smilesStructure", "readout", "unitAnnotation", "relationQualifier", "observed"],
 "data": [
  ["N=C(N)NCCC[C@H](NC(=O)c1ccccc1)C(=O)N[C@@H](CCCCN)C(=O)N[C@@H]1CN(c2ccccc2)C1=O", "inhibition", "%", "=", 27.8],
  ["CCCC[C@H](NC(=O)[C@H](CCCNC(=N)N)NC(=O)c1ccccc1)C(=O)N[C@@H]1CN(c2ccccc2)C1=O", "inhibition", "%", "<", 20],
  ["N=C(N)NCCC[C@H](NC(=O)c1ccccc1)C(=O)N[C@@H](CCCCN)C(=O)N[C@@H](C(=O)N[C@@H]1CN(c2ccccc2)C1=O)c1ccc(OCc2ccccc2)cc1", "inhibition", "%", "=", 46.9],
  ["N=C(N)NCCC[C@H](NC(=O)c1ccccc1)C(=O)N[C@@H](CCCCN)C(=O)N[C@H]1CN(c2ccccc2)C1=O", "inhibition", "%", "=", 81.4],
  ["N=C(N)NCCC[C@H](NC(=O)[C@H](CCCCN)NC(=O)c1ccccc1)C(=O)N[C@@H]1CN(c2ccccc2)C1=O", "inhibition", "%", "<", 20],
  ["N=C(N)NCCC[C@H](NC(=O)c1ccccc1)C(=O)N[C@@H](CCCCN)C(=O)N[C@@H](C(=O)N[C@H]1CN(c2ccccc2)C1=O)c1ccc(OCc2ccccc2)cc1", "inhibition", "%", "=", 60.1],
  ["Cc1ccc(N2C[C@H](NC(=O)[C@H](NC(=O)[C@H](CCCCN)NC(=O)[C@H](CCCNC(=N)N)NC(=O)c3ccccc3)c3ccc(OCc4ccccc4)cc3)C2=O)cc1", "inhibition", "%", "=", 60.3]
]}

* * *

# system: Genome polyprotein (dengue virus type 2)
# assayInfo: Inhibition of Dengue virus NS2B-NS3 protease at 50 uM using 2-Abz-Nle-Lys-Arg-Arg-Ser-(3-NO2)-Tyr-NH2 FRET substrate preincubated for 15 mins followed by substrate addition measured after 15 mins by fluorimetric analysis relative to control
Entries and their inhibition
readout: inhibition

{"columns": ["smilesStructure", "observed"],
 "data": [
  ["N=C(N)NCCC[C@H](NC(=O)[C@H](CCCCN)NC(=O)c1ccccc1)C(=O)N[C@@H]1CN(c2ccccc2)C1=O", "< 20%"],
  ["CCCC[C@H](NC(=O)[C@H](CCCNC(=N)N)NC(=O)c1ccccc1)C(=O)N[C@H]1CN(c2ccccc2)C1=O", "< 20%"],
  ["N=C(N)NCCC[C@H](NC(=O)c1ccccc1)C(=O)N[C@@H](CCCCN)C(=O)N[C@@H](C(=O)N[C@H]1CN(c2ccccc2)C1=O)c1ccc(OCc2ccccc2)cc1", "96%"],
  ["N=C(N)NCCC[C@H](NC(=O)[C@H](CCCCN)NC(=O)c1ccccc1)C(=O)N[C@H]1CN(c2ccccc2)C1=O", "< 20%"]
]}

* * *

# system: UniProt P06935
readout: IC50 (µM)

{"columns": ["smilesStructure", "observed"],
 "data": [
  ["N=C(N)NCCC[C@H](NC(=O)c1ccccc1)C(=O)N[C@@H](CCCCN)C(=O)N[C@H]1CN(c2ccccc2)C1=O", 22.5]
]}

* * *

# system: Trypsin (Homo sapiens) (UniProt P07477+P07478+P35030)
# assayInfo: Inhibition of trypsin (unknown origin) at 50 uM using Boc-Val-Pro-Arg-AMC as substrate preincubated for 15 mins followed by substrate addition measured after 10 mins by fluorimetric analysis relative to control
# Format: protein assay

{"columns": ["smilesStructure", "system", "inhibition"],
 "data": [
  ["CCCC[C@H](NC(=O)[C@H](CCCNC(=N)N)NC(=O)c1ccccc1)C(=O)N[C@H]1CN(c2ccccc2)C1=O", "Trypsin (Homo sapiens) (UniProt P07477+P07478+P35030)", "> 20%"],
  ["N=C(N)NCCC[C@H](NC(=O)c1ccccc1)C(=O)N[C@@H](CCCCN)C(=O)N[C@@H](C(=O)N[C@@H]1CN(c2ccccc2)C1=O)c1ccc(OCc2ccccc2)cc1", "Trypsin (Homo sapiens) (UniProt P07477+P07478+P35030)", "< 20%"],
  ["N=C(N)NCCC[C@H](NC(=O)c1ccccc1)C(=O)N[C@@H](CCCCN)C(=O)N[C@@H](C(=O)N[C@@H]1CN(c2ccc(F)cc2)C1=O)c1ccc(OCc2ccccc2)cc1", "Trypsin (Homo sapiens) (UniProt P07477+P07478+P35030)", "< 20%"],
  ["NCCCC[C@H](NC(=O)c1ccccc1)C(=O)N[C@@H](CCCCN)C(=O)N[C@@H]1CN(c2ccccc2)C1=O", "Trypsin (Homo sapiens) (UniProt P07477+P07478+P35030)", "> 20%"],
  ["Cc1cccc(N2C[C@@H](NC(=O)[C@H](NC(=O)[C@H](CCCCN)NC(=O)[C@H](CCCNC(=N)N)NC(=O)c3ccccc3)c3ccc(OCc4ccccc4)cc3)C2=O)c1", "Trypsin (Homo sapiens) (UniProt P07477+P07478+P35030)", "< 20%"],
  ["Cc1ccc(N2C[C@@H](NC(=O)[C@H](NC(=O)[C@H](CCCCN)NC(=O)[C@H](CCCNC(=N)N)NC(=O)c3ccccc3)c3ccc(OCc4ccccc4)cc3)C2=O)cc1", "Trypsin (Homo sapiens) (UniProt P07477+P07478+P35030)", "< 20%"],
  ["CCCC[C@H](NC(=O)[C@H](CCCCN)NC(=O)c1ccccc1)C(=O)N[C@@H]1CN(c2ccccc2)C1=O", "Trypsin (Homo sapiens) (UniProt P07477+P07478+P35030)", "> 20%"],
  ["N=C(N)NCCC[C@H](NC(=O)c1ccccc1)C(=O)N[C@@H](CCCCN)C(=O)N[C@@H](C(=O)N[C@@H]1CN(c2cccc(F)c2)C1=O)c1ccc(OCc2ccccc2)cc1", "Trypsin (Homo sapiens) (UniProt P07477+P07478+P35030)", "< 20%"]
]}

* * *

# system: Genome polyprotein (West Nile virus)
# assayInfo: Inhibition of West Nile virus NS2B-NS3 protease at 50 uM using 2-Abz-Nle-Lys-Arg-Arg-Ser-(3-NO2)-Tyr-NH2 FRET substrate preincubated for 15 mins followed by substrate addition measured after 15 mins by fluorimetric analysis relative to control
Classification field: enter true for inhibition values not below 50%, false for values below it.

{"columns": ["smilesStructure", "cat"],
 "data": [
  ["Cc1cccc(N2C[C@H](NC(=O)[C@H](NC(=O)[C@H](CCCCN)NC(=O)[C@H](CCCNC(=N)N)NC(=O)c3ccccc3)c3ccc(OCc4ccccc4)cc3)C2=O)c1", "false"],
  ["N=C(N)NCCC[C@H](NC(=O)c1ccccc1)C(=O)N[C@@H](CCCCN)C(=O)N[C@@H](C(=O)N[C@@H]1CN(c2cccc(F)c2)C1=O)c1ccc(OCc2ccccc2)cc1", "true"],
  ["N=C(N)NCCC[C@H](NC(=O)c1ccccc1)C(=O)N[C@@H](CCCCN)C(=O)N[C@@H](C(=O)N[C@H]1CN(c2cccc(F)c2)C1=O)c1ccc(OCc2ccccc2)cc1", "true"],
  ["Cc1cccc(N2C[C@@H](NC(=O)[C@H](NC(=O)[C@H](CCCCN)NC(=O)[C@H](CCCNC(=N)N)NC(=O)c3ccccc3)c3ccc(OCc4ccccc4)cc3)C2=O)c1", "false"],
  ["CCCC[C@H](NC(=O)[C@H](CCCNC(=N)N)NC(=O)c1ccccc1)C(=O)N[C@H]1CN(c2ccccc2)C1=O", "false"],
  ["CCCC[C@H](NC(=O)[C@H](CCCCN)NC(=O)c1ccccc1)C(=O)N[C@@H]1CN(c2ccccc2)C1=O", "false"]
]}

* * *

# system: Genome polyprotein (dengue virus type 2) (UniProt P29990)
# assayInfo: Inhibition of Dengue virus NS2B-NS3 protease at 50 uM using 2-Abz-Nle-Lys-Arg-Arg-Ser-(3-NO2)-Tyr-NH2 FRET substrate preincubated for 15 mins followed by substrate addition measured after 15 mins by fluorimetric analysis relative to control
Listing: inhibition of selected compounds

{"columns": ["smilesStructure", "relationQualifier", "inhibition (%)"],
 "data": [
  ["Cc1ccc(N2C[C@H](NC(=O)[C@H](NC(=O)[C@H](CCCCN)NC(=O)[C@H](CCCNC(=N)N)NC(=O)c3ccccc3)c3ccc(OCc4ccccc4)cc3)C2=O)cc1", "=", 95.9],
  ["NCCCC[C@H](NC(=O)c1ccccc1)C(=O)N[C@@H](CCCCN)C(=O)N[C@H]1CN(c2ccccc2)C1=O", "<", 20],
  ["Cc1cccc(N2C[C@H](NC(=O)[C@H](NC(=O)[C@H](CCCCN)NC(=O)[C@H](CCCNC(=N)N)NC(=O)c3ccccc3)c3ccc(OCc4ccccc4)cc3)C2=O)c1", "=", 96.5],
  ["N=C(N)NCCC[C@H](NC(=O)c1ccccc1)C(=O)N[C@@H](CCCCN)C(=O)N[C@@H](C(=O)N[C@H]1CN(c2ccc(F)cc2)C1=O)c1ccc(OCc2ccccc2)cc1", "=", 96.3],
  ["Cc1ccc(N2C[C@@H](NC(=O)[C@H](NC(=O)[C@H](CCCCN)NC(=O)[C@H](CCCNC(=N)N)NC(=O)c3ccccc3)c3ccc(OCc4ccccc4)cc3)C2=O)cc1", "=", 73.5],
  ["N=C(N)NCCC[C@H](NC(=O)c1ccccc1)C(=O)N[C@@H](CCCCN)C(=O)N[C@@H](C(=O)N[C@@H]1CN(c2ccc(F)cc2)C1=O)c1ccc(OCc2ccccc2)cc1", "=", 65.5]
]}
